Target desc: DGAT2 in human hepatocytes (Homo sapiens (Human), UniProt Q96PD7)
Sequence (Q96PD7 whole entry): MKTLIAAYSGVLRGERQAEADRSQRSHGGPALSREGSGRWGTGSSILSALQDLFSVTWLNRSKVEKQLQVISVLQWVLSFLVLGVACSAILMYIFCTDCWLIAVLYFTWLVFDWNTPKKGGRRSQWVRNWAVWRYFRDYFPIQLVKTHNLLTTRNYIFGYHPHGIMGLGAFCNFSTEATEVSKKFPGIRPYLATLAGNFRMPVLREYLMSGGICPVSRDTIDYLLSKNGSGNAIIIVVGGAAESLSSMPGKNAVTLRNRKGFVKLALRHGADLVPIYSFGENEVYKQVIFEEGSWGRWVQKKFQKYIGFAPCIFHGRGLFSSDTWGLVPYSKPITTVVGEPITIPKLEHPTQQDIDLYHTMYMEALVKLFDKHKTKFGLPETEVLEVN
Method: Determination of IC50 values for DGAT2 inhibitors in human hepatocytes
Type: cell-based
Condition summary: inhibition of DGAT2 in human hepatocytes; geometric mean
Counter-ions that a name gives are not always drawn.
Quantity name: IC50 (nM)
One number for each entry, in nM.

- Compound: "CCOc1cccnc1Oc1cncc(-c2ncc(C(=O)N[C@H]3CCOC3)cn2)c1 [WO2018033832 Ex. 1]"
  Quantity name: "IC50"
  Unit label: "nM"
  Measured value: 2.8
- Compound: "CCOc1cccnc1Oc1cncc(-c2ncc(C(=O)N[C@H]3CNC[C@H](F)C3)cn2)c1 [Example 7, trifluoroacetate salt]"
  Quantity name: "IC50"
  Unit label: "nM"
  Measured value: 100

Turning to the following compound.
IC50 recorded for this compound, CCOc1cccnc1Oc1cncc(-c2ncc(C(=O)N[C@@H]3CNCC[C@H]3F)cn2)c1 [Example 5] , is 26
